Values were extracted from PubChem BioAssay AID2315.

test: A qHTS for Small Molecule Inhibitors of Shiga Toxin; settings: Vero cells, Shiga toxin protein synthesis inhibition reporter; at 38.7 µM
The whole screen tested about 290,000 compounds, of which about 27,000 (9.3%) were called active. Rule as the data show it: active = inhibition mostly above about 28% (no sharp cut-off); inactive = mostly below about 43%. What follows is part of a selection rich in actives, with near analogues and random picks from the rest.
Answer with one of the outcomes yes for active, no for inactive

molecule: COc1ccc2nc(SCc3ccccc3)nc(C)c2c1
category label: yes

molecule: Cc1ccc(SCC(=O)c2cc(C)c(OC(=S)N(C)C)c(C)c2)cc1
category label: no

molecule: Cc1cccc(N=C2NC(=O)/C(=C/c3cn(C)c4ccccc34)S2)c1
category label: no

molecule: Oc1c(Cl)cc(Cl)cc1/C=N/c1ncn[nH]1
category label: no

molecule: CCCc1cc(C(=O)Nc2ccc(C(=O)OC)cc2)cs1
category label: no

Problem: Call for entry CCCCC(CC)C(=O)Nc1ccc(Cl)cn1 (stereo not given) :
Solution: no

Problem: What call does the record list for COc1ccc(OC)c(NC(=O)CN(C)CCOc2ccc(Br)cc2)c1 ?
Solution: no
